Property: triglyceride lowering activity; scope: individual compounds
# Tested on: Rattus norvegicus
# assay_name: In vivo Triglyceride lowering activity at dose as 0.03 % of the diet
# Type: functional
Number only, in %; omit the unit.

> print(dat)
                                compound                    readout.kind  measurement.units  meas.value
1  CCOC(=O)c1ccc(NCCCCCCCCCCCCCCCCBr)cc1  triglyceride lowering activity                  %          84

I have this compound here, C[Si](C)(C)CCCCCCCCCCCNc1ccc(C(=O)[O-])cc1.[Na+] , and I need its recorded triglyceride lowering activity. 88
